Molecular target: Neuropeptide Y receptor type 5 (Rattus norvegicus) (UniProt Q63634)
Sequence (whole entry): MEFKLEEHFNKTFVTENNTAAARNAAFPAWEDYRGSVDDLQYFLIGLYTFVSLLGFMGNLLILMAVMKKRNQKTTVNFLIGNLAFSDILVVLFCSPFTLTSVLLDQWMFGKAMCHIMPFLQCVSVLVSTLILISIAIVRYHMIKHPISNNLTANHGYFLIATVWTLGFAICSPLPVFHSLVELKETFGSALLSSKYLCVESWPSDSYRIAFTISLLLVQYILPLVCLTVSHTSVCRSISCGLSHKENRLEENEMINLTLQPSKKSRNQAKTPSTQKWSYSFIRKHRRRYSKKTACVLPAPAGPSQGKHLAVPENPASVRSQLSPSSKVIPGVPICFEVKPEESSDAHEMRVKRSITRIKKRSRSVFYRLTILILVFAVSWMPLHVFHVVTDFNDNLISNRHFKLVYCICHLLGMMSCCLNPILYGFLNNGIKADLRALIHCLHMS
Experiment: Inhibition of PYY effect on forskolin-stimulated cyclic AMP formation in C6 cells expressing rat NPY Y5 receptor
Assay type: functional, cell-based
Parameters: concentration or dose not given beside the values
Details: concentration not given here
Lab note: compare inhibition against 90%. Equal or greater, write true. Smaller, write false.

Problem: Exam item: decide whether the reported inhibition for Cc1cccc2c1N(C1CCN(CC(=O)Nc3ccc(C(=O)c4ccccc4)cc3)CC1)C(=O)OC2 is at least 90%.
Result: true

Problem: Exam item: decide whether the reported inhibition for O=C(CN1CCC(N2C(=O)OCc3ccccc32)CC1)Nc1ccc2c(c1)-c1ccccc1C2O (stereo not given) is at least 90%.
Result: true

Problem: Exam item: decide whether the reported inhibition for CCn1c2ccccc2c2cc(NC(=O)CN3CCC(N4C(=O)OCc5cccc(OC)c54)CC3)ccc21 is at least 90%.
Result: false
